Listing of entries alongside the reported koff.
Target: T1, hCSF1R ECD.506 (human, UniProt P07333 20-506)
T1 construct: also called human CSF1R ECD
T1 sequence (P07333 20-506): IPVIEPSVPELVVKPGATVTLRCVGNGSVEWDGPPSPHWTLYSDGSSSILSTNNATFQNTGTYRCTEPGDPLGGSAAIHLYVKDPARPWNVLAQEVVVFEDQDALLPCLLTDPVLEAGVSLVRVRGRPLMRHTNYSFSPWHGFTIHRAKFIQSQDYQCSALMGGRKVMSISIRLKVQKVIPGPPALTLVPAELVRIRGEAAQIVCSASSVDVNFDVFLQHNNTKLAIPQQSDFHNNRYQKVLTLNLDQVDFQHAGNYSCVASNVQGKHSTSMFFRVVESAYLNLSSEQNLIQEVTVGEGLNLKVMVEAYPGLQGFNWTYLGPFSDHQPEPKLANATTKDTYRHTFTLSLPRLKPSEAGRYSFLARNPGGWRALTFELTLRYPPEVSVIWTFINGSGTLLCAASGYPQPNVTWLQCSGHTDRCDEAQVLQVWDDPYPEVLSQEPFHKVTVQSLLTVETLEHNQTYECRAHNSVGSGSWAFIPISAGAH
Assay: SPR Biacore T100, antibody captured on anti-human IgG, hCSF1R ECD.506 as analyte, 1:1 model
Description: The kₐ, kd, and KD for binding to human CSF1R ECD was determined for each of the humanized antibodies as follows. Binding kinetics of anti-CSF1R humanized antibodies to CSF1R ECD was determined using Biacore T100 Surface Plasmon Resonance (SPR) (GE Healthcare Life Sciences, Piscataway, N.Y.). […]
Give the value in s⁻¹ but do not write s⁻¹ after it.

Some solved cases for reference:
Binder	koff / s⁻¹
h0302-L0H1 (antibody, human IgG4 S228P, kappa, V domains shown, also called Ab7; huAb 0302-L0H1) VH: QVQLVQSGAEVKKPGSSVKVSCKASGYTFSDFNIHWVRQAPGQGLEWMGYINPYTDVTVYNEKFKGRVTITSDKSTSTAYMELSSLRSEDTAVYYCASYFDGTFDYALDYWGQGTLVTVSS VL: EIVLTQSPATLSLSPGERATLSCRASESVDNYGLSFMNWYQQKPGQAPRLLIYTASNLESGIPARFSGSGSGTDFTLTISSLEPEDFAVYYCQQSKELPWTFGQGTKVEIKR	0.00369
h0302-L2H1 (antibody, human IgG4 S228P, kappa, V domains shown, also called Ab9; huAb 0302-L2H1) VH: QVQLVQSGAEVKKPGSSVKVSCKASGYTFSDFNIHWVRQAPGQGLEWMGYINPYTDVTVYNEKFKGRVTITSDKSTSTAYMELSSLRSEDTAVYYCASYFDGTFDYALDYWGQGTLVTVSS VL: EIVVTQSPATLSLSPGERATLSCRASESVDNYGLSFMNWFQQKPGQAPRLLIYTASNLESGIPARFSGSGSRTDFTLTISSLEPEDFAVYYCQQSKELPWTFGQGTKVEIKR	0.000914
h0302-L2H2 (antibody, human IgG4 S228P, kappa, V domains shown, also called Ab12; huAb 0302-L2H2) VH: QVQLVQSGAEVKKPGSSVKVSCKASGYTFSDFNIHWVRQAPGQGLEWIGYINPYTDVTVYNEKFKGRATLTSDKSTSTAYMELSSLRSEDTAVYYCASYFDGTFDYALDYWGQGTLVTVSS VL: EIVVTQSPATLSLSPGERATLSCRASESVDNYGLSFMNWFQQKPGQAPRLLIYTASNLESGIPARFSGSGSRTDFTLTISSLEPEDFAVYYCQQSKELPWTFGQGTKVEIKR	0.00084
h0302-L0H2 (antibody, human IgG4 S228P, kappa, V domains shown, also called Ab10; huAb 0302-L0H2) VH: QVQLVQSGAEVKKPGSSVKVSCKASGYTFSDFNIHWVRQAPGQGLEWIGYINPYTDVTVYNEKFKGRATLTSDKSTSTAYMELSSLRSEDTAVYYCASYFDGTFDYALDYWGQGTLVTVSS VL: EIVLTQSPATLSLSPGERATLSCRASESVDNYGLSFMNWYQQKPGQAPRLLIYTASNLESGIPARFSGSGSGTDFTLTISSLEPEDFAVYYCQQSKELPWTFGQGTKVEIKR	0.00179

Now look at this one.
koff for h0302-L1H1 (antibody, human IgG4 S228P, kappa, V domains shown, also called Ab8; huAb 0302-L1H1) VH: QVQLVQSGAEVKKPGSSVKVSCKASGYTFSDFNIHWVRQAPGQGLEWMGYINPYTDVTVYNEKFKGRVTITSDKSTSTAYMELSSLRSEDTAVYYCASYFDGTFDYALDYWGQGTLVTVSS VL: EIVLTQSPATLSLSPGERATLSCRASESVDNYGLSFMNWYQQKPGQAPRLLIYTASNLESGIPARFSGSGSRTDFTLTISSLEPEDFAVYYCQQSKELPWTFGQGTKVEIKR is 0.00404
